From: PubChem BioAssay AID1159580

Each record here notes measured normalized growth.
assay: chemical genetic growth profiling, strain panel (AID 1159580);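 note: tested at 20 µM; growth read once vehicle control cultures reached saturation at 30 °C; 1 = growth at the plate median or of vehicle wells; lower values mean less growth of the strain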; details: S. cerevisiae deletion strains, growth OD, locus YER111C, strain swi4, stronger effect = lower value
In all, about 5,500 compounds went through this assay and about 2,000 (36%) were called active. Inconclusive results (about 18%) are left out. Some of the results follow.
readout-type: normalized growth

INSERT INTO results (compound, readout_type, measurement) VALUES
  ('C=CC(C1=CC(=O)C=CC1=O)c1ccccc1 (configuration not stated)', 'normalized growth', 1),
  ('COc1cccc(/C=C/C(=O)O)c1C(C)C', 'normalized growth', 0.976),
  ('CC(C)=CCC[C@](C)(O)C1CC=C(C)CC1 (some centres not stated)', 'normalized growth', 0.969),
  ('CN/C(=C\[N+](=O)[O-])NCCSCc1ccc(CN(C)C)o1', 'normalized growth', 0.992),
  ('CC1(C)CCCC2(C)C3C1[C@@H](O)C2(C)C[C@H]3O (some centres not stated)', 'normalized growth', 1.03),
  ('COc1cc(OC)c2c(=O)c(-c3ccccc3)c(C)oc2c1OC', 'normalized growth', 0.971),
  ('O=C(O)/C=C/C=C/c1ccccc1', 'normalized growth', 0.774),
  ('Oc1c(I)cc(I)c2cccnc12', 'normalized growth', 0.103),
  ('Oc1c(Cl)cc(Cl)c2cccnc12', 'normalized growth', 0.0742),
  ('CCC(Cc1c(I)cc(I)c(N)c1I)C(=O)O (configuration not stated)', 'normalized growth', 0.925),
  ('C/C=C/c1ccc2c(c1)OCO2', 'normalized growth', 1.01),
  ('CC(=O)NCCCCCC(=O)O', 'normalized growth', 0.967),
  ('CCN(CC)CCOc1ccc2c(c1)C(=O)c1cc(OCCN(CC)CC)ccc1-2', 'normalized growth', 0.971),
  ('O=C(O[C@@H]1Cc2c(O)cc(O)cc2O[C@@H]1c1cc(O)c(O)c(O)c1-c1c([C@H]2Oc3cc(O)cc(O)c3C[C@H]2O)cc(O)c(O)c1O)c1cc(O)c(O)c(O)c1', 'normalized growth', 0.963),
  ('CCOP(=S)(OCC)SCn1c(=O)oc2cc(Cl)ccc21', 'normalized growth', 0.965),
  ('CS(=O)(=O)CCCCN=C=S', 'normalized growth', 0.988),
  ('CCN(CC)CCOc1ccc(/C(=C(\Cl)c2ccccc2)c2ccccc2)cc1', 'normalized growth', 0.529);

* * *

assay: chemical genetic growth profiling, strain panel (AID 1159580);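 note: tested at 20 µM; growth read once vehicle control cultures reached saturation at 30 °C; 1 = growth at the plate median or of vehicle wells; lower values mean less growth of the strain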; settings: S. cerevisiae deletion strains, growth OD, locus YNL322C, strain KRE1
The campaign covered roughly 5,500 compounds. About 2,000 (36%) were called active. Not shown: some 18% with an inconclusive outcome. Rule as the data show it: active = normalized growth mostly below about 0.91 (no sharp cut-off); inconclusive = no clear call, values can overlap the other calls; inactive = mostly above about 0.92. The list shows a part of the results.
Labels: active, inactive

INSERT INTO assay_data (molecule, class) VALUES
  ('c1ccc2c(c1)CCc1c-2[nH]c2ccccc12', 'active'),
  ('O=C(OC1Cc2c(O)cc(O)cc2OC1c1cc(O)c(O)c(O)c1-c1c(C2Oc3cc(O)cc(O)c3CC2OC(=O)c2cc(O)c(O)c(O)c2)cc(O)c(O)c1O)c1cc(O)c(O)c(O)c1 (stereo not given)', 'inactive'),
  ('CC(C)N(C(=O)SCC(Cl)=C(Cl)Cl)C(C)C', 'inactive'),
  ('C1CCN2CC3CC(CN4CCCCC34)C2C1 (stereo not given)', 'inactive'),
  ('O=C(N/N=C\C=C\c1ccccc1)c1ccccc1-n1cccc1', 'inactive');
